# ASSAY_REMARKS: Functional Dkk1-LRP5-TCF-Luciferase Assay in U2OS Cells (table columns: A=MAX FOLD Induction/DMSO CONTROL; B=fold induction @ 2.0 uM; C=fold induction @ 20.0 uM)
# Format: cell-based, Human
# CONDITION_DETAILS: Homo sapiens, U2OS; 20.0 uM compound
Threshold-based label: fold induction at 20 µM under 1 gives yes (1), fold induction at 20 µM not under 1 gives no (0).

Is 1 strictly greater than the molecule's reported fold induction at 20 µM? molecule: "CC(C)NC(=O)N1CCC(n2c(=O)n(C)c3c(-c4ccc5ccccc5c4)ccnc32)CC1"
yes (1)

Try this molecule too: "Cc1nc2cc(-c3ccc4ccccc4c3)cnc2n1C1CCNCC1"
no (0)

// query: "c1ccc(-c2nc3c(-c4ccc5ccccc5c4)ccnc3n2C2CCNCC2)nc1"
yes (1)

Okay, and "Cc1nc2c(-c3ccc4ccccc4c3)ccnc2n1[C@@H]1CCNC1" ?
yes (1)

Follow-up entry: "c1ccc2cc(-c3ccnc4c3ncn4C3CNC3)ccc2c1"
no (0)

Same lookup for "CN(C)C(=O)N1CCC(n2c(=O)n(C)c3c(-c4ccc5ccccc5c4)ccnc32)CC1" , please.
yes (1)

Now the molecule "c1ccc(-c2nc3cc(-c4ccc5ccccc5c4)cnc3n2C2CCNCC2)nc1"
yes (1)

Next molecule up: "c1ccc(-c2nc3c(-c4ccc5ccccc5c4)ccnc3n2C2CCNCC2)cc1"
yes (1)

* * *

# ASSAY_REMARKS: Functional Dkk1-LRP5-TCF-Luciferase Assay in U2OS Cells (table columns: A=MAX FOLD Induction/DMSO CONTROL; B=fold induction @ 2.0 uM; C=fold induction @ 20.0 uM)
# Format: cell-based, Human
# CONDITION_DETAILS: Homo sapiens, U2OS; 2.0 uM compound
Consider the following compounds; for each one, report its fold induction at 2 µM.
Would you mind answering with just the numeric figure?

Give the measured fold induction at 2 µM of "c1ccc2cc(-c3cnc4c(c3)nc(-c3ccncc3)n4C3CCNCC3)ccc2c1" .
1.56

Subsequent entry: "c1ccc2cc(-c3ccnc4c3nc(-c3ncc[nH]3)n4C3CCNCC3)ccc2c1"
1.42

How about this compound: "Clc1cccc(-c2nc3cc(-c4ccc5ccccc5c4)cnc3n2C2CCNCC2)c1"
0.98

Query "Cn1c(=O)n(C2CCNCC2)c2nccc(-c3ccc4ccccc4c3)c21" next
1.07

Queued: "FC(F)(F)Oc1cccc(-c2nc3c(-c4ccc5ccccc5c4)ccnc3n2C2CCNCC2)c1"
1.52

Moving on to "Cc1ccc2[nH]cc(-c3nc4c(-c5ccc6ccccc6c5)ccnc4n3C3CCNCC3)c2c1"
1.92

Please answer likewise for "Clc1ccc(-c2nc3c(-c4ccc5ccccc5c4)ccnc3n2C2CCNCC2)cc1"
1.21

Another compound to look at: "O=[N+]([O-])c1ccc(-c2nc3c(-c4ccc5ccccc5c4)ccnc3n2C2CCNCC2)s1"
1.83

Lookup "O=[N+]([O-])c1cccc(-c2nc3cc(-c4ccc5ccccc5c4)cnc3n2C2CCNCC2)c1"
1.3

* * *

# Test system: canonical Wnt-β-catenin cellular messaging system (16xTCF-TK-FireFly-Luci reporter, Wnt3a and Dkk1 co-transfected U2OS cells)
# ASSAY_REMARKS: Functional Dkk1-LRP5-TCF-Luciferase Assay in U2OS Cells (table columns: A=MAX FOLD Induction/DMSO CONTROL; B=fold induction @ 2.0 uM; C=fold induction @ 20.0 uM)
# Type: cell-based, Human
# CONDITION_DETAILS: maximum fold induction over DMSO control
Provide the reported A = MAX FOLD Induction/DMSO CONTROL of each item.
The response must contain the number and no unit.

So what's the measured A = MAX FOLD Induction/DMSO CONTROL for this one? "Cc1nc2c(-c3ccc4ccccc4c3)ccnc2n1[C@@H]1CCCNC1"
3.570

Now this one: "COc1ncccc1-c1nc2cc(-c3ccc4ccccc4c3)cnc2n1C1CCNCC1"
2.030

"Cc1nc2c(-c3ccc4ccccc4c3)ccnc2n1[C@H]1CCCNC1" ?
1.910

Entry to check: "Oc1ccccc1-c1nc2cc(-c3ccc4ccccc4c3)cnc2n1C1CCNCC1"
1.380

Try "c1ccc2cc(-c3ccnc4c3ncn4[C@@H]3CCNC3)ccc2c1" next.
4.260

What about "COc1cc(-c2nc3cc(-c4ccc5ccccc5c4)cnc3n2C2CCNCC2)ccc1O" ?
2.110

Check "CC(=O)Nc1ccc(-c2nc3c(-c4ccc5ccccc5c4)ccnc3n2C2CCNCC2)cc1" too.
1.710

Quick one: "Clc1ccc(-c2nc3cc(-c4ccc5ccccc5c4)cnc3n2C2CCNCC2)cc1"
1.160

Likewise for "O=C1OC2(c3ccc(O)cc3Oc3cc(O)ccc32)c2ccc(NC(=S)N3CCC(n4cnc5c(-c6ccc7ccccc7c6)ccnc54)CC3)cc21" ?
12.158
